FYI, the data here is from patent US10105437B2.

Test system: PBMC from HLA-DQ2+ coeliac subjects
test-details: Interferon gamma ELISPOT, second round wheat gliadin and glutenin 16mer library
Type: cell-based, human
conditions: 16mers pre-treated with transglutaminase; 18 or 28 subjects
endpoint-name: subjects with 10-40% of maximal peptide-specific response

[
  {
    "substance": "G-LQPFPQPQLPYPQP-G: wheat 16mer, second round library (GLQPFPQPQLPYPQPG; Description of Artificial Sequence: Synthetic gluten peptide)",
    "value-measured": "Nil"
  },
  {
    "substance": "QQGYYPTSPQQSGQGQ (QGQQGYYPTSPQQPPQ; Description of Artificial Sequence: Synthetic gluten peptide) [wheat 16mer, second round library]",
    "value-measured": "Nil"
  },
  {
    "substance": "LQQQCSPVAMPQRLAR [wheat 16mer, second round library]",
    "value-measured": "11/28"
  },
  {
    "substance": "G-IQVDPSGQVQWPQQ-G: wheat 16mer, second round library (GMQADPSGQVQWPQQG; Description of Artificial Sequence: Synthetic gluten peptide)",
    "value-measured": "Nil"
  },
  {
    "substance": "G-FFPQPQQQFPQPQQ-G: wheat 16mer, second round library (GFPQQPQQQFPQPQQG; Description of Artificial Sequence: Synthetic gluten peptide)",
    "value-measured": "10/28"
  }
]

[Q] Could you share which subjects with 10-40% of maximal peptide-specific response value was measured for G-QLPYPQPQLPYPQP-G: wheat 16mer, second round library (GQLPYPQPQLPYPQPG; Description of Artificial Sequence: Synthetic gluten peptide) ?
[A] 3/28

[Q] For the substance LALQTLPAMCNVYIPP [wheat 16mer, second round library] , what subjects with 10-40% of maximal peptide-specific response is on record?
[A] Nil

---

Test system: PBMC from HLA-DQ2+ coeliac subjects
test-details: Interferon gamma ELISPOT, hordein 20mer first round library after barley challenge
Type: cell-based, human
conditions: 17 subjects
# number of subjects with > 70% maximal response per record follows
Format: numeric value only, no unit, no commentary.

These solved cases illustrate the format of a correct answer.
[
  {
    "chain-sequence": "FPQPQEPFPQQPQQPFPLQP (Description of Artificial Sequence: Synthetic gluten peptide) [barley hordein 20mer]",
    "value-measured": 0
  },
  {
    "chain-sequence": "PFPQQPQQPFPQPQQPFRQQ (Description of Artificial Sequence: Synthetic gluten peptide) [barley hordein 20mer]",
    "value-measured": 3
  },
  {
    "chain-sequence": "PFPQPQQPFPWQPQQPFPQP (Description of Artificial Sequence: Synthetic gluten peptide) [barley hordein 20mer]",
    "value-measured": 0
  },
  {
    "chain-sequence": "QGSEQIIPQQPQQPFPLQPH (Description of Artificial Sequence: Synthetic gluten peptide) [barley hordein 20mer]",
    "value-measured": 3
  },
  {
    "chain-sequence": "PQQPPFWPQQPFPQQPPFGL (Description of Artificial Sequence: Synthetic gluten peptide) [barley hordein 20mer]",
    "value-measured": 1
  }
]

Then this sequence:
[Q] What value of number of subjects with > 70% maximal response has been recorded for this entry: FPLQPQQPFPQQPQQPFPQQ (Description of Artificial Sequence: Synthetic gluten peptide) [barley hordein 20mer]
[A] 0

---

Test system: PBMC from HLA-DQ2+ coeliac subjects
test-details: Interferon gamma ELISPOT, hordein 20mer first round library after barley challenge
Type: cell-based, human
conditions: 17 subjects
endpoint-name: number of subjects with > 70% maximal response
Note: the reply should be a number with no unit written.

// solved cases for number of subjects with > 70% maximal response follow
[
  {
    "chain-sequence": "PQPYPQQPQPFPQQPPFCQQ (Description of Artificial Sequence: Synthetic gluten peptide) [barley hordein 20mer]",
    "target-desc": "PBMC from HLA-DQ2+ coeliac subjects",
    "value-measured": 1
  },
  {
    "chain-sequence": "QIPYVHPSILQQLNPCKVFL (Description of Artificial Sequence: Synthetic gluten peptide) [barley hordein 20mer]",
    "target-desc": "PBMC from HLA-DQ2+ coeliac subjects",
    "value-measured": 1
  },
  {
    "chain-sequence": "QPFPQPQQPFPWQPQQPFPQ (Description of Artificial Sequence: Synthetic gluten peptide) [barley hordein 20mer]",
    "target-desc": "PBMC from HLA-DQ2+ coeliac subjects",
    "value-measured": 2
  },
  {
    "chain-sequence": "FQQPQQSYPVQPQQPFPQPQ (Description of Artificial Sequence: Synthetic gluten peptide) [barley hordein 20mer]",
    "target-desc": "PBMC from HLA-DQ2+ coeliac subjects",
    "value-measured": 1
  },
  {
    "chain-sequence": "SPLQPQQPFPQGSEQIIPQQ (Description of Artificial Sequence: Synthetic gluten peptide) [barley hordein 20mer]",
    "target-desc": "PBMC from HLA-DQ2+ coeliac subjects",
    "value-measured": 0
  }
]

[Q] Which measured number of subjects with > 70% maximal response belongs to QPQQPFPQPQQPIPYQPQQP (Description of Artificial Sequence: Synthetic gluten peptide) [barley hordein 20mer] , tested on PBMC from HLA-DQ2+ coeliac subjects?
[A] 1

[Q] Provide value of number of subjects with > 70% maximal response for this record tested with PBMC from HLA-DQ2+ coeliac subjects: QPFPTPQQFFPYLPQQTFPP (Description of Artificial Sequence: Synthetic gluten peptide) [barley hordein 20mer]
[A] 1

[Q] Give recorded number of subjects with > 70% maximal response with PBMC from HLA-DQ2+ coeliac subjects for the following sequence: QPQPYPQQPQPYPQQPFQPQ (Description of Artificial Sequence: Synthetic gluten peptide) [barley hordein 20mer]
[A] 2

[Q] Recall the recorded number of subjects with > 70% maximal response for PQGSEQIIPQQPFPLQPQPF (Description of Artificial Sequence: Synthetic gluten peptide) [barley hordein 20mer] with PBMC from HLA-DQ2+ coeliac subjects and state it.
[A] 1

[Q] Form: Entry = PWQPQQPFPQPQEPIPQQPQ (Description of Artificial Sequence: Synthetic gluten peptide) [barley hordein 20mer] | System = PBMC from HLA-DQ2+ coeliac subjects | number of subjects with > 70% maximal response = ____
[A] 1

[Q] GET /values?readout=number of subjects with > 70% maximal response&system=PBMC from HLA-DQ2+ coeliac subjects&item= QQPFPLQPQQPFPQPQPFPQ (Description of Artificial Sequence: Synthetic gluten peptide) [barley hordein 20mer]
[A] 0

[Q] Give recorded number of subjects with > 70% maximal response with PBMC from HLA-DQ2+ coeliac subjects for the following sequence: QSQQQFPQPQQPFPQQPQQP (Description of Artificial Sequence: Synthetic gluten peptide) [barley hordein 20mer]
[A] 0
